# experimentalProtocol: Oral bioavailability (25 mg/kg) in monkey
# Format: ADME, organism-based
# testContext: primates, in vivo
propertyMeasured: bioavailability (%)
Give bare numbers, in %.

So what does the record say about bioavailability for CS(=O)(=O)O.Cc1c(O)cccc1C(=O)N[C@@H](CSc1ccccc1)[C@H](O)CN1C[C@H]2CCCC[C@H]2C[C@H]1C(=O)NC(C)(C)C [NELFINAVIR MESYLATE] ?
9

* * *

# experimentalProtocol: The maximum plasma concentration (25 mg/kg) administered intravenously in rat
# Assay type: ADME, organism-based
# Parameters: dose 25 mg/kg, route intravenous
# testContext: iv
propertyMeasured: Cmax (ng/mL)
Numbers only, in ng/mL.

So what does the record say about Cmax for CS(=O)(=O)O.Cc1c(O)cccc1C(=O)N[C@@H](CSc1ccccc1)[C@H](O)CN1C[C@H]2CCCC[C@H]2C[C@H]1C(=O)NC(C)(C)C [NELFINAVIR MESYLATE] ?
12700

* * *

# experimentalProtocol: Elimination rate constant of the compound(30 mg/kg) administered orally in dog
# Assay type: ADME, organism-based, Canis lupus familiaris
# testContext: in vivo, po, read-out: T1/2 el (converted)
propertyMeasured: half-life (h)
One number for each entry, in h.

So what does the record say about half-life for CS(=O)(=O)O.Cc1c(O)cccc1C(=O)N[C@@H](CSc1ccccc1)[C@H](O)CN1C[C@H]2CCCC[C@H]2C[C@H]1C(=O)NC(C)(C)C [NELFINAVIR MESYLATE] ?
7.72

* * *

# experimentalProtocol: The maximum time for retention (25 mg/kg) administered intravenously in rat
# Type: ADME, organism-based
# testContext: in vivo, iv
propertyMeasured: Tmax (min)
Numbers only, in min.

So what does the record say about Tmax for CS(=O)(=O)O.Cc1c(O)cccc1C(=O)N[C@@H](CSc1ccccc1)[C@H](O)CN1C[C@H]2CCCC[C@H]2C[C@H]1C(=O)NC(C)(C)C [NELFINAVIR MESYLATE] ?
3.6

* * *

# experimentalProtocol: The maximum plasma concentration (30 mg/kg) administered orally in dog
# Type: ADME, organism-based, Canis lupus familiaris
# Set-up: dose 30 mg/kg, route oral
# testContext: po
propertyMeasured: Cmax (ng/mL)
Give bare numbers, in ng/mL.

So what does the record say about Cmax for CS(=O)(=O)O.Cc1c(O)cccc1C(=O)N[C@@H](CSc1ccccc1)[C@H](O)CN1C[C@H]2CCCC[C@H]2C[C@H]1C(=O)NC(C)(C)C [NELFINAVIR MESYLATE] ?
1220

* * *

# experimentalProtocol: The area under curve (100 mg/kg) administered orally in humans
# Assay type: ADME, organism-based
# testContext: human, in vivo, po
propertyMeasured: AUC (ng·h/mL)
Answers are plain numbers, in ng·h/mL.

So what does the record say about AUC for CS(=O)(=O)O.Cc1c(O)cccc1C(=O)N[C@@H](CSc1ccccc1)[C@H](O)CN1C[C@H]2CCCC[C@H]2C[C@H]1C(=O)NC(C)(C)C [NELFINAVIR MESYLATE] ?
1250

* * *

# experimentalProtocol: The maximum plasma concentration (50 mg/kg) administered orally in fasted rat
# Format: ADME, organism-based
# Design: dose 50 mg/kg, route oral
# testContext: po
propertyMeasured: Cmax
Report field: quantity (unit follows the number).

So what does the record say about Cmax for CS(=O)(=O)O.Cc1c(O)cccc1C(=O)N[C@@H](CSc1ccccc1)[C@H](O)CN1C[C@H]2CCCC[C@H]2C[C@H]1C(=O)NC(C)(C)C [NELFINAVIR MESYLATE] ?
1470 ng/mL

* * *

# experimentalProtocol: The maximum plasma concentration (100 mg/kg) administered orally in human
# Type: ADME, organism-based
# Design: route oral
# testContext: po
propertyMeasured: Cmax (ng/mL)
One number for each entry, in ng/mL.

So what does the record say about Cmax for CS(=O)(=O)O.Cc1c(O)cccc1C(=O)N[C@@H](CSc1ccccc1)[C@H](O)CN1C[C@H]2CCCC[C@H]2C[C@H]1C(=O)NC(C)(C)C [NELFINAVIR MESYLATE] ?
313

* * *

# experimentalProtocol: Elimination rate constant of the compound(25 mg/kg) administered orally in monkey
# Assay type: ADME, organism-based
# testContext: simiiformes, in vivo, po, read-out: T1/2 el (converted)
propertyMeasured: half-life (min)
Give bare numbers, in min.

So what does the record say about half-life for CS(=O)(=O)O.Cc1c(O)cccc1C(=O)N[C@@H](CSc1ccccc1)[C@H](O)CN1C[C@H]2CCCC[C@H]2C[C@H]1C(=O)NC(C)(C)C [NELFINAVIR MESYLATE] ?
180

* * *

# experimentalProtocol: Oral bioavailability (30 mg/kg) in dog
# Format: ADME, organism-based, Canis lupus familiaris
# testContext: in vivo
propertyMeasured: bioavailability (%)
Answers are plain numbers, in %.

So what does the record say about bioavailability for CS(=O)(=O)O.Cc1c(O)cccc1C(=O)N[C@@H](CSc1ccccc1)[C@H](O)CN1C[C@H]2CCCC[C@H]2C[C@H]1C(=O)NC(C)(C)C [NELFINAVIR MESYLATE] ?
35

* * *

# experimentalProtocol: Elimination rate constant of the compound(400 mg/kg) administered orally in human
# Format: ADME, organism-based
# testContext: in vivo, po, read-out: T1/2 el (converted)
propertyMeasured: half-life (h)
Give bare numbers, in h.

So what does the record say about half-life for CS(=O)(=O)O.Cc1c(O)cccc1C(=O)N[C@@H](CSc1ccccc1)[C@H](O)CN1C[C@H]2CCCC[C@H]2C[C@H]1C(=O)NC(C)(C)C [NELFINAVIR MESYLATE] ?
2.28

* * *

# experimentalProtocol: Oral bioavailability (50 mg/kg) in fasted rat
# Assay type: ADME, organism-based
# testContext: in vivo
propertyMeasured: bioavailability (%)
One number for each entry, in %.

So what does the record say about bioavailability for CS(=O)(=O)O.Cc1c(O)cccc1C(=O)N[C@@H](CSc1ccccc1)[C@H](O)CN1C[C@H]2CCCC[C@H]2C[C@H]1C(=O)NC(C)(C)C [NELFINAVIR MESYLATE] ?
29

* * *

# experimentalProtocol: The maximum time for retention (12.5 mg/kg) administered intravenously in marmoset
# Format: ADME, organism-based
# testContext: callithrix, in vivo, iv
propertyMeasured: Tmax (min)
Give bare numbers, in min.

So what does the record say about Tmax for CS(=O)(=O)O.Cc1c(O)cccc1C(=O)N[C@@H](CSc1ccccc1)[C@H](O)CN1C[C@H]2CCCC[C@H]2C[C@H]1C(=O)NC(C)(C)C [NELFINAVIR MESYLATE] ?
4.8

* * *

# experimentalProtocol: The maximum plasma concentration (25 mg/kg) administered orally in monkey
# Format: ADME, organism-based
# Design: dose 25 mg/kg, route oral
# testContext: simiiformes, po
propertyMeasured: Cmax
Report field: quantity (unit follows the number).

So what does the record say about Cmax for CS(=O)(=O)O.Cc1c(O)cccc1C(=O)N[C@@H](CSc1ccccc1)[C@H](O)CN1C[C@H]2CCCC[C@H]2C[C@H]1C(=O)NC(C)(C)C [NELFINAVIR MESYLATE] ?
1590 ng/mL

* * *

# experimentalProtocol: The maximum time for retention (100 mg) administered orally in human
# testContext: in vivo, po
propertyMeasured: Tmax (h)
Numbers only, in h.

So what does the record say about Tmax for CS(=O)(=O)O.Cc1c(O)cccc1C(=O)N[C@@H](CSc1ccccc1)[C@H](O)CN1C[C@H]2CCCC[C@H]2C[C@H]1C(=O)NC(C)(C)C [NELFINAVIR MESYLATE] ?
3

* * *

# experimentalProtocol: Oral bioavailability (50 mg/kg) in rat
# Assay type: ADME, organism-based
# testContext: in vivo
propertyMeasured: bioavailability (%)
Give bare numbers, in %.

So what does the record say about bioavailability for CS(=O)(=O)O.Cc1c(O)cccc1C(=O)N[C@@H](CSc1ccccc1)[C@H](O)CN1C[C@H]2CCCC[C@H]2C[C@H]1C(=O)NC(C)(C)C [NELFINAVIR MESYLATE] ?
43

* * *

# experimentalProtocol: The area under curve (15 mg/kg) administered intravenously in dog
# Type: ADME, organism-based, Canis lupus familiaris
# testContext: in vivo, iv
propertyMeasured: AUC (µg·h/mL)
Answers are plain numbers, in µg·h/mL.

So what does the record say about AUC for CS(=O)(=O)O.Cc1c(O)cccc1C(=O)N[C@@H](CSc1ccccc1)[C@H](O)CN1C[C@H]2CCCC[C@H]2C[C@H]1C(=O)NC(C)(C)C [NELFINAVIR MESYLATE] ?
11.2

* * *

# experimentalProtocol: The maximum time for retention (25 mg/kg) administered orally in marmoset
# Format: ADME, organism-based
# testContext: callithrix, in vivo, po
propertyMeasured: Tmax (h)
Answers are plain numbers, in h.

So what does the record say about Tmax for CS(=O)(=O)O.Cc1c(O)cccc1C(=O)N[C@@H](CSc1ccccc1)[C@H](O)CN1C[C@H]2CCCC[C@H]2C[C@H]1C(=O)NC(C)(C)C [NELFINAVIR MESYLATE] ?
1

# credit: ChEMBL document CHEMBL1130253
